# System: K-562 leukemia
# assay notes: NCI-60 one-dose screen, 48 h
# protocol conditions: 10 µM unless noted
Compounds without any hit were thinned out: in the full panel of roughly 83,000, 20% have a hit. Calls of active or inactive are those of the source. The calls were made as follows: active = growth percent below 10; inactive = the rest.
Possible outcomes: yes (1) for active, no (0) for inactive

>>> df
                                    molecule  qualitative_label
 0  COC(=O)c1nc(=S)[nH]c(C(=O)OC)c1C(=O)c1ccc(OC)cc1             no (0)
 1               O=S(=O)(O)c1ccc2cc(O)ccc2c1             no (0)
 2                CC(C)(C)OC(=O)CC1(O)CCCCC1             no (0)
 3                      COc1ccc(CCl)c(C)c1OC            yes (1)
 4                           COc1cc(Cl)ccc1C             no (0)
 5                               COCCNC(C)=O             no (0)
 6                    N=c1sc2ccccc2n1CC(=O)O             no (0)
 7    O=C(c1ccncc1)c1c(Cc2ccccc2)ccc2ccccc12             no (0)
 8       Nc1c(Cl)cc2c(c1Br)C(=O)c1ccccc1C2=O             no (0)
 9               Cc1ccc(S(=O)(=O)n2ccnc2)cc1             no (0)
10                    O=C1c2cccnc2-c2ncccc21             no (0)
11  O=C1C2=C(Nc3cc(Cl)ccc3N2)OC1c1c[nH]c2ccc(COc3ccccc3)cc12 (stereo not drawn)             no (0)
12                     CCCC(=O)Oc1ccc(CC)cc1             no (0)
13                         CC1(C)CC(=O)NC1=O             no (0)
14               Cc1cc2ccccc2c2cc3ccccc3cc12             no (0)
15                 C/C=C(/C(=O)NC(N)=O)C(C)C             no (0)
16  O=C1C=CC(n2cc(F)c(=O)[nH]c2=O)O1 (stereo not drawn)             no (0)
17                                      OCCS             no (0)
18  COCCCNC1=C(C#N)C(=O)NC(c2cccs2)S1 (stereo not drawn)             no (0)
19                 O=C(c1ccccc1)C1(Br)CCCCC1             no (0)
20                         COC(=O)c1ccccc1Cl            yes (1)
21    CC(C)(C)OC(=O)c1ccc(NCc2cc(O)ccc2O)cc1            yes (1)
22  CC(C)(C)C1CCC(=NO)CC1 (stereo not drawn)             no (0)
23        c1ccc2c[n+](Cc3ccc4ccccc4n3)ccc2c1             no (0)
24  Cc1ccc(NC(=S)N/C=C(\c2ccccc2)S(=O)Cc2ccccc2)c(C)c1 (stereo not drawn)             no (0)
25       O=c1[nH]c(=O)c2[nH]c(=O)[nH]c2[nH]1             no (0)
26                      CS(=O)(=O)c1nsc(N)n1             no (0)
27                            Cc1cccc(Cl)c1N             no (0)
28                          CCN(CC)C(=S)SCCO             no (0)
29  O=C(Nc1ccccc1)OCC(CN1CCCCC1)OC(=O)Nc1ccccc1 (stereo not drawn)             no (0)
30  CCOP(=O)(OCC)/C(C#N)=C/c1c(C)[nH]c2ccccc12             no (0)
31       C#CCOC(=O)C(N)CS (stereo not drawn)             no (0)
32                Clc1ccc2sc(-c3ccccc3)nc2c1             no (0)
33                             OCc1cccc(F)c1             no (0)
34                  COc1cc2c(cc1O)C(=O)CCCC2             no (0)
35  CCCCCCC(C)CC1=C(O)c2ccccc2C(=O)C1=O (stereo not drawn)             no (0)
36                  CCOC(=O)c1ccc(C(=N)N)cc1             no (0)
37        Cc1cc2nc3ccc(=[N+](C)C)cc-3sc2cc1N            yes (1)
38                     O=C(O)C#Cc1ccc(Cl)cc1             no (0)
39        Cc1nc2c(=O)[nH]c(=S)[nH]c2[nH]c1=O             no (0)
40                     C/C(CC(C)C)=N/NC(N)=S             no (0)
41                CCOC(=N)c1ccc(C(=N)OCC)cc1             no (0)
42               CCOC(=O)CN1CCC(C(=O)OCC)CC1             no (0)
43         O=[N+]([O-])c1cccc(N=Cc2ccccc2)c1             no (0)
44     CC(C)=NOC(C)C(=O)O (stereo not drawn)             no (0)
45                  CCOc1ccc(/C=C\C(=O)O)cc1             no (0)
46           COc1ccc(CCN=Cc2ccc(Cl)cc2)cc1OC             no (0)
47  O=C(c1ccc(Cl)cc1)C1C(c2ccccc2)C1[N+](=O)[O-] (stereo not drawn)             no (0)
48                      S=c1nn[nH]n1C1CCCCC1             no (0)
49                  Cc1cc(Cl)nc(Nc2ccccc2)n1             no (0)
50                    ON=C(C1CCCCC1)C1CCCCC1             no (0)
51                              OCCCc1ccccc1             no (0)
52       Nc1ccc2ccc(NS(=O)(=O)N3CCCCC3)cc2c1            yes (1)
53    COC(=O)c1cc(C(=O)OC)cc([N+](=O)[O-])c1             no (0)
54  COC(=O)c1nc(=S)[nH]c(C(=O)OC)c1C(=O)c1ccccc1             no (0)
55                    CCCCCCCCCCCCCCCCC(=O)O             no (0)
56  Cc1nc(Nc2ccc(Cl)cc2)c2cnn(-c3ccccc3)c2n1             no (0)
57              CC(C)(C)OC(=O)NCCc1ccc(N)cc1             no (0)
